assay_system: hTAS2R31 (Homo sapiens)
Sequence (P59538 whole entry): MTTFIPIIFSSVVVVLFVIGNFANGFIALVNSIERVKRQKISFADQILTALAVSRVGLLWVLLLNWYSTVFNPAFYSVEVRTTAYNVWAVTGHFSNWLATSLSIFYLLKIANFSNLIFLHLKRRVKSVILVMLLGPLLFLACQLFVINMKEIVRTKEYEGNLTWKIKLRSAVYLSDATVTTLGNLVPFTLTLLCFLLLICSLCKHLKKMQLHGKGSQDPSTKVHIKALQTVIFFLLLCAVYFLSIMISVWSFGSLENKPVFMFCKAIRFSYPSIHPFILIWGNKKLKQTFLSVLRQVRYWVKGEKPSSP
assay_overview: FLIPR calcium imaging in HEK293 cells stably expressing hTAS2R31 and G16gust44
endpoint_label: pIC50
pIC50 here is simply -log10 of the concentration when that concentration is written in mol/L.

Task: What value of measured pIC50 is listed for CC1CCC(CCCC(=O)O)C1(C)C (stereo not shown) ?
Result: 5.19

Measured values drawn from paper PMC2925244 for this set.
